assay: inhibitors of fibronectin matrix deposition, primary screen, AH1F cells, Alexa488-fibronectin fluorescence, plate reader (AID 743247); conditions: AH1F fibroblasts, overnight, at 12.6 µM, active compounds read high;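 note: positive control wells lacked labelled fibronectin entirely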
Among all 350,000 compounds or so, about 300 (0.086%) were called active. Shown is part of a subset that was picked to be rich in actives.
Catalogue of inhibition readings, one per entry.
Please give a number only; it is taken to be in %.

Study these solved cases before continuing.
molecule: O=C(CCN1CCN(C/C=C/c2ccccc2)CC1)Nc1ccccc1Cl
measured-property: inhibition
unit-name: %
number: 15.1

molecule: COc1cccc(C(=O)Nc2ccc3c(c2)OC[C@H](C)NC[C@H](C)[C@H](OC)CN(C)C3=O)c1
measured-property: inhibition
unit-name: %
number: 3.33

molecule: C[C@H]1CCCCO[C@@H](CN(C)C(=O)Nc2ccccc2)[C@@H](C)CN([C@@H](C)CO)C(=O)c2cc(NC(=O)CCC(F)(F)F)ccc2O1
measured-property: inhibition
unit-name: %
number: -5.23

## Input Name the reported inhibition value associated with the molecule COc1cccc(C(=O)Nc2ccc3c(c2)C(=O)N(C)[C@H]2CC[C@@H](CC(=O)N[C@H](C)c4ccccc4)O[C@H]2CO3)c1
## Output 1.83

## Input Name the reported inhibition value associated with the molecule CNC[C@H]1Oc2ccc(NC(=O)Nc3ccc(F)cc3)cc2C(=O)N([C@@H](C)CO)C[C@@H]1C
## Output -0.84

## Input Name the reported inhibition value associated with the molecule CCCN1C[C@@H](C)[C@@H](OC)CN(C)C(=O)c2cc(NC(=O)Nc3cccc(F)c3)ccc2OC[C@@H]1C
## Output -5.97

## Input Name the reported inhibition value associated with the molecule C[C@@H](NC(=O)C[C@@H]1C[C@H]2c3cc(NC(=O)C4CCC4)ccc3O[C@H]2[C@@H](CO)O1)c1ccccc1
## Output 17.4

## Input Name the reported inhibition value associated with the molecule Cc1ccc(-n2ncc3c(=O)[nH]cnc32)c(C)c1
## Output -2.15

* * *

assay: inhibitors of fibronectin matrix deposition, primary screen, AH1F cells, Alexa488-fibronectin fluorescence, plate reader (AID 743247); conditions: AH1F fibroblasts, overnight, at 12.6 µM, active compounds read high;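 note: positive control wells lacked labelled fibronectin entirely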
Hit rate of the full screen: of about 350,000 compounds, about 300 (0.086%) were called active. What follows is part of a selection rich in actives, with near analogues and random picks from the rest.
measured-property: inhibition (%)
Please give a number only; it is taken to be in %.

## Input Name the reported inhibition value associated with the compound O=C(C1CCC1)N1CC2(C1)[C@H](c1ccccc1)[C@H](CO)N2Cc1nccs1
## Output 4.67

## Input Name the reported inhibition value associated with the compound COc1ccc(S(=O)(=O)N(C)C[C@@H]2Oc3ccc(NC(=O)Nc4cccc5ccccc45)cc3C(=O)N([C@H](C)CO)C[C@H]2C)cc1
## Output 9.82

## Input Name the reported inhibition value associated with the compound COc1ccccc1C#Cc1ccc([C@H]2[C@@H](C#N)N(C(=O)C3CCCCC3)[C@@H]2CO)cc1
## Output -2.57

## Input Name the reported inhibition value associated with the compound CC(C)NC(=O)Nc1cccc2c1O[C@@H](CN(C)C(=O)NC(C)C)[C@@H](C)CN(C)C2=O
## Output 3.55

## Input Name the reported inhibition value associated with the compound O=C(C1CCC1)N1CC[C@H]2[C@H](CO)Nc3ccc(-c4cccc(F)c4)cc3[C@H]21
## Output -4.67

## Input Name the reported inhibition value associated with the compound CN1C(=O)c2cc(NC(=O)Cc3ccccc3)ccc2OC[C@H]2O[C@H](CC(=O)NCc3ccc(Cl)cc3)CC[C@H]21
## Output 1.06

## Input Name the reported inhibition value associated with the compound CC(C)NC(=O)N[C@H]1CC[C@H](CC(=O)NCCCN(C)C)O[C@H]1CO
## Output -22.3

## Input Name the reported inhibition value associated with the compound COc1cccc(-c2cnc3c(c2)C(=O)N([C@@H](C)CO)C[C@@H](C)[C@@H](CN(C)Cc2ccc(C(=O)O)cc2)O3)c1
## Output -19.8

## Input Name the reported inhibition value associated with the compound O=C1NCCCOCc2cn(nn2)CC[C@@H]1Cc1ccc(-c2ccccc2)cc1
## Output 1.3

## Input Name the reported inhibition value associated with the compound O=C1C[C@@H](c2ccccc2)C(=O)N[C@H](c2ccc(F)cc2)C/C=C\CCN1
## Output -8.29

## Input Name the reported inhibition value associated with the compound C/C=C/c1ccc2c(c1)O[C@H](CN(C)C(=O)Nc1ccc(OC)cc1)[C@@H](C)CN([C@H](C)CO)S2(=O)=O
## Output 9.72

## Input Name the reported inhibition value associated with the compound O=C1N[C@H](c2ccccc2)COCc2cn(nn2)CC[C@H]1Cc1cccc(Cl)c1
## Output -1.96

## Input Name the reported inhibition value associated with the compound O=C1N[C@H](Cc2ccccc2)COCc2cn(nn2)CC[C@@H]1Cc1ccc(-c2ccccc2)cc1
## Output 7.74

## Input Name the reported inhibition value associated with the compound COc1ccc(-c2ccc3c(c2)[C@@H]2[C@@H](CCN2C(=O)NC2CCCC2)[C@@H](CO)N3C)cc1
## Output 5.47

## Input Name the reported inhibition value associated with the compound O=C(C[C@@H]1CC[C@H](NC(=O)C2CCC2)[C@@H](CO)O1)NC1CCCCC1
## Output -5.05

## Input Name the reported inhibition value associated with the compound Cc1ccc(Nc2nc(N)nc(CSc3nnc(C)s3)n2)cc1
## Output -6.84

## Input Name the reported inhibition value associated with the compound Cc1ccc(Nc2nnc(SCc3ccccc3)s2)cc1
## Output 30.3

## Input Name the reported inhibition value associated with the compound CCCNC(=O)Nc1ccc2c(c1)C(=O)N(C)[C@H]1CC[C@H](CC(=O)NC3CCC3)O[C@H]1CO2
## Output -3.4

meta.source: PubChem BioAssay AID743247
